- Assay procedure: NCI Yeast Anticancer Drug Screen. Data for the cln2 rad14 strain (AID 165);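 note: 0% = growth equal to vehicle treated cultures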
- Measurement parameters: S. cerevisiae cln2 rad14 strain, at 5.0 µM (retest, dose inferred, filed as 0.5), stronger effect = higher value
About 79,000 compounds went through this panel and 15% of them were active in at least one assay; those are over-represented in the sample as a whole. Calls of active or inactive are those of the source. Cut-off read from the data, not from the text of the source: active = growth inhibition above about 70%; inactive = the rest.
Metric: growth inhibition

{"columns": ["Molecule", "Measurement"],
 "data": [
  ["CC(C)(C)c1ccc(O)c(C2CCCCC2)c1", "-3% (inactive)"],
  ["O=[N+]([O-])/C(C(Cl)=C(Cl)Cl)=C(/Nc1ccccc1)Sc1ccccc1", "49% (inactive)"],
  ["NNC(=O)c1c(SCc2ccccc2)nc2c3ccccc3ccn12", "24% (inactive)"],
  ["COc1ccc2nc3cc([N+](=O)[O-])ccc3c(NNc3ccc([N+](=O)[O-])cc3)c2c1", "-5% (inactive)"],
  ["O=C1C=CC(=O)C(Sc2ccccc2)=C1", "-14% (inactive)"],
  ["CCOC(=O)/C(Cl)=C(\\OCC)C(=O)OCC", "-5% (inactive)"],
  ["CN(C)C(=S)/N=c1\\ss/c(=N/C(=S)N(C)C)n1-c1ccc([N+](=O)[O-])cc1", "-7% (inactive)"],
  ["COC(=O)/C=C1/Nc2ccc(Cl)cc2C(=O)NC1=O", "23% (inactive)"],
  ["C[N+]12CC3C4CC(C3C1)C2C4 (stereo unspecified)", "29% (inactive)"],
  ["CCOC(=O)C(C(=O)OCC)C(=O)c1ccccc1C(=O)c1ccccc1", "-2% (inactive)"],
  ["CCOC(=O)C(NC(=O)C(CO)n1c(-c2ccccc2)c(-c2ccccc2)oc1=O)C(=O)OCC (stereo unspecified)", "-1% (inactive)"]
]}
